target: CDK14/Cyclin Y (Homo sapiens, UniProt O94921); assay: NanoBRET live-cell target engagement, CDK14-NanoLuc/Cyclin Y in HEK-293; type: binding; conditions: independent experiment 2; read-out: CDK14/Y IC50
Sequence (O94921 whole entry): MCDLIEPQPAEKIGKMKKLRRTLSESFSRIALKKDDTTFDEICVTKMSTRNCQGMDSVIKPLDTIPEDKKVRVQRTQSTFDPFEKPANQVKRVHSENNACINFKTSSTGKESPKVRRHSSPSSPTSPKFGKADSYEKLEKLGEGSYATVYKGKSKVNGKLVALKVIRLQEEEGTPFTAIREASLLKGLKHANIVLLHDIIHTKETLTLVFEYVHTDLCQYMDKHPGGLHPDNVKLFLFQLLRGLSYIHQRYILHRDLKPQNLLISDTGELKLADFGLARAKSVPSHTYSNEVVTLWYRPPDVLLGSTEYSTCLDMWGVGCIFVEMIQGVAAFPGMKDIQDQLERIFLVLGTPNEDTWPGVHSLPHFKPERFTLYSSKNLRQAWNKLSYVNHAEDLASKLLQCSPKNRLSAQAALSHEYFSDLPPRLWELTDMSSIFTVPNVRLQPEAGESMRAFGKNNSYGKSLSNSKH
Sequence (Q8ND76 whole entry partner): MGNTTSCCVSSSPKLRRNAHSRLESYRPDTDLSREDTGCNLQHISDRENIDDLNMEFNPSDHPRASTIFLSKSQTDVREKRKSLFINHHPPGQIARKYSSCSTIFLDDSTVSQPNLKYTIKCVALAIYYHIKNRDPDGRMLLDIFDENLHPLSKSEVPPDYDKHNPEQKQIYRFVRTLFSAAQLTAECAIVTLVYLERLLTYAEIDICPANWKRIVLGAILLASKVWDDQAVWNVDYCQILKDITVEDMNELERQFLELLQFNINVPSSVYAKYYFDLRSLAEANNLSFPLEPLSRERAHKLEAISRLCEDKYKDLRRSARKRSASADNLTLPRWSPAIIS
The reader will find reported IC50 values listed item by item below.
# number only, unit nM dropped from output

1. CN1C/C=C/CCOc2cccc(c2)-c2ccnc(n2)Nc2cccc(c2)C1 ... 29

We now examine a further molecule.
## Task Give the reported value of IC50 for this record: COCCN1CCN(Cc2ccc(-c3n[nH]c4c3C(=O)c3c(NC(=O)NN5CCOCC5)cccc3-4)cc2)CC1
## Result 31

====

molecular target: CDK11B/Cyclin L2 (Homo sapiens, UniProt P21127); test: NanoBRET live-cell target engagement, CDK11B-NanoLuc/Cyclin L2 in HEK-293; assay type: binding; conditions: CDK11b/L2; experiment 1; read-out: Inhibition at 10µM (%)
Sequence (P21127 1-782 isoform P21127-2): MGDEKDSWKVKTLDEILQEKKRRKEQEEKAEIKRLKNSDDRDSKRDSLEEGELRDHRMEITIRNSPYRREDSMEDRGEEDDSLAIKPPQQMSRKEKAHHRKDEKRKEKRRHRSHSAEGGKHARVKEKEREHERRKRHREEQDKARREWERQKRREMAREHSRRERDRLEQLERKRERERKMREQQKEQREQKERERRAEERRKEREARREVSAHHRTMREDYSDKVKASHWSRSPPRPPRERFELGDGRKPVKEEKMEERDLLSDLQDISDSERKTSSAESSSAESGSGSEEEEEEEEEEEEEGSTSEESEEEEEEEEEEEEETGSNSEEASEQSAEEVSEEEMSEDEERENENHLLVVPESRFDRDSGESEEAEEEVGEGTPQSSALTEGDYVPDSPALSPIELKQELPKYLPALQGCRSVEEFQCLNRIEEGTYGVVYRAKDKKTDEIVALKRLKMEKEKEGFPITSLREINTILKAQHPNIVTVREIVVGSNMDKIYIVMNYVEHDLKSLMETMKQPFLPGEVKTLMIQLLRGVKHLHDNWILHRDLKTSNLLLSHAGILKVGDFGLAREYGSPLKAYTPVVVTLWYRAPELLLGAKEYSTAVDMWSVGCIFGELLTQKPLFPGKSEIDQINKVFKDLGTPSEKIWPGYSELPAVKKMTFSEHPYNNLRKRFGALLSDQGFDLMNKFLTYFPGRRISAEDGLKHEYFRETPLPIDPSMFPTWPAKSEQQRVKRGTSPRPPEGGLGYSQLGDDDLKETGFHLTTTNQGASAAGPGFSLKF
Tick 1 (yes) if inhibition at 10 µM is 10% or greater. Tick 0 (no) if inhibition at 10 µM is less than 10%.

1) NS(=O)(=O)c1ccc(Nc2nc(OCC3CCCCC3)c3nc[nH]c3n2)cc1 [NU6102] ... 1 (yes)
2) CN1CCN(c2ccc(Nc3ncc4cc(C#N)c(=O)n(C5CCCC5)c4n3)cc2)CC1 [ON123300] ... 1 (yes)
3) COc1ccc(F)cc1-c1cc(NC(=O)C2CCCNC2)ncc1Cl (stereo not drawn) [CDK inhibitor 2] ... 1 (yes)

## Task Please check the record CCc1cnn2c(NCc3ccc[n+]([O-])c3)cc(N3CCCC[C@H]3CCO)nc12 [Dinaciclib] and state if its inhibition at 10 µM is at or above 10%.
## Result 1 (yes)

## Task Please check the record CC(C)(C)c1nc(-c2cccc(NS(=O)(=O)c3c(F)cccc3F)c2F)c(-c2ccnc(N)n2)s1 [Dabrafenib] and state if its inhibition at 10 µM is at or above 10%.
## Result 0 (no)

## Task Please check the record CNC(=O)c1nn(C)c2c1C(C)(C)Cc1cnc(Nc3ccc(N4CCN(C)CC4)cc3)nc1-2 [Milciclib] and state if its inhibition at 10 µM is at or above 10%.
## Result 1 (yes)

## Task Please check the record CC(C)c1cnn2c(NCc3ccccc3)cc(NC[C@H]3CCNC[C@@H]3O)nc12 [CT7001] and state if its inhibition at 10 µM is at or above 10%.
## Result 1 (yes)

## Task Please check the record N#CCNC(=O)c1ccc(-c2ccnc(Nc3ccc(N4CCOCC4)cc3)n2)cc1 [Momelotinib] and state if its inhibition at 10 µM is at or above 10%.
## Result 1 (yes)

## Task Please check the record CN1CC[C@H](c2c(O)cc(O)c3c(=O)cc(-c4ccccc4Cl)oc23)[C@H](O)C1 [Flavopiridol] and state if its inhibition at 10 µM is at or above 10%.
## Result 1 (yes)

## Task Please check the record CC(C)N1CCN(c2ccc(Nc3ncc4cc5n(c4n3)C3(CCCCC3)CNC5=O)nc2)CC1 [Lerociclib] and state if its inhibition at 10 µM is at or above 10%.
## Result 0 (no)

## Task Please check the record Cn1cc(-c2ccc(-c3cncc(Cl)c3N3CCC4(CCNC4=O)CC3)cc2)cn1 [CCT251545] and state if its inhibition at 10 µM is at or above 10%.
## Result 0 (no)

## Task Please check the record CN1CCN(Cc2ccc(NC(=O)Nc3ccc(Oc4ccnc(N)n4)cc3)cc2C(F)(F)F)CC1 [K03861] and state if its inhibition at 10 µM is at or above 10%.
## Result 1 (yes)
